- ASSAY_METHOD_TEXT: recombinant UMI read abundance after kanamycin selection (control-corrected) (log10(CPM+1)); higher = more efficient recombination; extreme values may be limits of the assay; sequences stand for … in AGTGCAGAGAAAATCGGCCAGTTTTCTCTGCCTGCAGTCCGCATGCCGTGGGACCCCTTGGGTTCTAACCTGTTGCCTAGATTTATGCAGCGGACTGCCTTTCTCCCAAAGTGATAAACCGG…AGGTTGGTTTCACT; site = the 11-nt donor;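 also: IS621 bridge recombinase in Escherichia coli cells against a fixed T5 target plasmid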
As shown below, each of these sequences has a reported recombinant UMI read abundance (log10) value.
Please state the value as a number alone, without comment.

TTCCCTACATGGACCGGTTTTCCCGGTAATCCGTATTTGAG (site TTCCCTACTCT) :: 0.00443
CCCTCCTCATGGACCGGTTTTCCCGGTAATCCGTATTTGAG (site CCCTCCTCTCT) :: 0.256
GCTTCTGCATGGACCGGTTTTCCCGGTAATCCGTATTTGCC (site GCTCCTGCTGG) :: 1.82
AGGAGTACATGGACCGGTTTTCCCGGTAATCCGTATTTGAC (site AGGAATACTGT) :: 1.29
AGTAAGGCATGGACCGGTTTTCCCGGTAATCCGTATTTGCT (site AGTAAGGCTAG) :: 2.75

Query: # input sequence: TAGCCTTCATGGACCGGTTTTCCCGGTAATCCGTATTTGGT (site TAGACTTCTAC) ; wanted: its recombinant UMI read abundance (log10)
Response: 0

Query: Lookup TCAGAGACATGGACCGGTTTTCCCGGTAATCCGTATTTGCC (site TCAGAGACTCG)
Response: 0.683

Query: Another: TGGTCCCCATGGACCGGTTTTCCCGGTAATCCGTATTTGTA (site TGATCCCCTTA)
Response: 0

Query: Do the same for GTTTGAACATGGACCGGTTTTCCCGGTAATCCGTATTTGGC (site GTTAGAACTGC) please
Response: 0
